Tested on: 677734-321-R-J1-PDC complex spheroid viability;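 also: spheroids exposed to compounds for one week; 100% = vehicle DMSO treated spheroids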
Experiment: Anticancer human tumor 677734-321-R-J1-PDC patient-derived soft tissue sarcoma cell line growth inhibition [POLQ]
Conditions: second compound 3.16 µM; first compound 1 µM; hits give low values
endpoint: viability, T/C (%)
Numeric answer only, unit % assumed.

Request: In one line, give reported viability, T/C of the entry CC1COCCN1c1cc(C2(O)CC3CCC(C2)O3)c2cnn(-c3ccn[nH]3)c2n1 (stereo not drawn) + COC1C(OC(N)=O)C(O)C(Oc2ccc3c(O)c(NC(=O)c4ccc(O)c(CC=C(C)C)c4)c(=O)oc3c2C)OC1(C)C .
Response: 16.7

Request: Note viability, T/C for the compound shown: COc1cc2cc(C(=O)CCC(=O)O)sc2cc1OC + COC1C(OC(N)=O)C(O)C(Oc2ccc3c(O)c(NC(=O)c4ccc(O)c(CC=C(C)C)c4)c(=O)oc3c2C)OC1(C)C
Response: 110

Request: Look up viability, T/C of CCc1cc2c(N3CCc4c(cc(Cn5ccnc5)cc4-c4cn(C)nc4C(F)(F)F)C3=O)ccnc2c(OC)n1 + Cc1cccc(N(C)C(=O)C2C(O)CCN2c2nc(C)cc(C(F)(F)F)c2C#N)c1 and report it.
Response: 76.1

Request: Let me know recorded viability, T/C for CCc1c2c(nc3ccc(O)cc13)-c1cc3c(c(=O)n1C2)COC(=O)[C@]3(O)CC + Nc1ccc(C#CCN(C(=O)Cc2ncc(C(F)(F)F)cc2C(F)(F)F)c2ccc(F)cc2)nn1 , thanks.
Response: 1.3

Request: Query viability, T/C for O=C(c1cc(Cc2n[nH]c(=O)c3ccccc23)ccc1F)N1CCN(C(=O)C2CC2)CC1 + Nc1ccc(C#CCN(C(=O)Cc2ncc(C(F)(F)F)cc2C(F)(F)F)c2ccc(F)cc2)nn1
Response: 92.8

Request: Dear colleague, please send me the reported viability, T/C for COc1ccc([C@@H](O)c2cc(-c3ncnc4cc(N5CCOCC5)ccc34)c(F)cc2Cl)nn1 + Nc1ccc(C#CCN(C(=O)Cc2ncc(C(F)(F)F)cc2C(F)(F)F)c2ccc(F)cc2)nn1 when you can.
Response: 75.5

Request: Report viability, T/C for COc1cc(C2c3cc4c(cc3C(OC3OC5COC(C)OC5C(O)C3O)C3COC(=O)C23)OCO4)cc(OC)c1O (stereo not drawn) + COC1C(OC(N)=O)C(O)C(Oc2ccc3c(O)c(NC(=O)c4ccc(O)c(CC=C(C)C)c4)c(=O)oc3c2C)OC1(C)C
Response: 54.9

Request: Identify viability, T/C associated with the compound C#Cc1c(F)ccc2cc(O)cc(-c3ncc4c(N5CC6CCC(C5)N6)nc(OCC56CCCN5CC(F)C6)nc4c3F)c12 (stereo not drawn) + Cc1cccc(N(C)C(=O)C2C(O)CCN2c2nc(C)cc(C(F)(F)F)c2C#N)c1
Response: 109

Request: Consider the compound C=CC(=O)N1CCN(c2nc(=O)n(-c3c(C)ccnc3C(C)C)c3nc(-c4c(O)cccc4F)c(F)cc23)C(C)C1 (stereo not drawn) + Cc1cccc(N(C)C(=O)C2C(O)CCN2c2nc(C)cc(C(F)(F)F)c2C#N)c1 and give its recorded viability, T/C.
Response: 108

Request: Note down viability, T/C recorded for COc1cc(C2c3cc4c(cc3C(OC3OC5COC(C)OC5C(O)C3O)C3COC(=O)C23)OCO4)cc(OC)c1O (stereo not drawn) + Cc1cccc(N(C)C(=O)C2C(O)CCN2c2nc(C)cc(C(F)(F)F)c2C#N)c1
Response: 50.7

Request: Determine its reported viability, T/C: C=CCn1c(=O)c2cnc(Nc3ccc(N4CCN(C)CC4)cc3)nc2n1-c1cccc(C(C)(C)O)n1 + Cc1cccc(N(C)C(=O)C2C(O)CCN2c2nc(C)cc(C(F)(F)F)c2C#N)c1
Response: 31.9

Request: Supply recorded viability, T/C for C#Cc1c(F)ccc2cc(O)cc(-c3ncc4c(N5CC6CCC(C5)N6)nc(OCC56CCCN5CC(F)C6)nc4c3F)c12 (stereo not drawn) + COC1C(OC(N)=O)C(O)C(Oc2ccc3c(O)c(NC(=O)c4ccc(O)c(CC=C(C)C)c4)c(=O)oc3c2C)OC1(C)C here.
Response: 105

Request: For CC1COCCN1c1cc(-c2ccnn2C)c2ccnc(-c3ccn[nH]3)c2n1 (stereo not drawn) + Cc1cccc(N(C)C(=O)C2C(O)CCN2c2nc(C)cc(C(F)(F)F)c2C#N)c1 , write its viability, T/C.
Response: 19.1

Request: Provide measured viability, T/C value, entry: CC1COCCN1c1cc(C2(O)CC3CCC(C2)O3)c2cnn(-c3ccn[nH]3)c2n1 (stereo not drawn) + Nc1ccc(C#CCN(C(=O)Cc2ncc(C(F)(F)F)cc2C(F)(F)F)c2ccc(F)cc2)nn1
Response: 8.6

Request: Give the value of viability, T/C reported for the following: COc1cc2cc(C(=O)CCC(=O)O)sc2cc1OC + Nc1ccc(C#CCN(C(=O)Cc2ncc(C(F)(F)F)cc2C(F)(F)F)c2ccc(F)cc2)nn1
Response: 109

Request: Kindly indicate its recorded viability, T/C. Item: Nc1ccn(C2OC(CO)C(O)C2(F)F)c(=O)n1 (stereo not drawn) + Nc1ccc(C#CCN(C(=O)Cc2ncc(C(F)(F)F)cc2C(F)(F)F)c2ccc(F)cc2)nn1
Response: 13.7

Request: Item CCc1c2c(nc3ccc(O)cc13)-c1cc3c(c(=O)n1C2)COC(=O)[C@]3(O)CC + COC1C(OC(N)=O)C(O)C(Oc2ccc3c(O)c(NC(=O)c4ccc(O)c(CC=C(C)C)c4)c(=O)oc3c2C)OC1(C)C : provide viability, T/C
Response: 1.16

Request: Consider the compound CNCc1ccc(-c2[nH]c3cc(F)cc4c3c2CCNC4=O)cc1 + Cc1cccc(N(C)C(=O)C2C(O)CCN2c2nc(C)cc(C(F)(F)F)c2C#N)c1 . State its measured viability, T/C.
Response: 108

Request: Read off the recorded viability, T/C for C=CC(=O)N1CCN(c2nc(=O)n(-c3c(C)ccnc3C(C)C)c3nc(-c4c(O)cccc4F)c(F)cc23)C(C)C1 (stereo not drawn) + COC1C(OC(N)=O)C(O)C(Oc2ccc3c(O)c(NC(=O)c4ccc(O)c(CC=C(C)C)c4)c(=O)oc3c2C)OC1(C)C
Response: 106

Request: # return recorded viability, T/C for input CC(C)n1c(=O)n(C)c2cnc3cc(F)c(-c4ccc(OCCCN5CCCCC5)nc4)cc3c21 + Cc1cccc(N(C)C(=O)C2C(O)CCN2c2nc(C)cc(C(F)(F)F)c2C#N)c1
Response: 106

Request: Please indicate viability, T/C recorded for CNCc1ccc(-c2[nH]c3cc(F)cc4c3c2CCNC4=O)cc1 + Nc1ccc(C#CCN(C(=O)Cc2ncc(C(F)(F)F)cc2C(F)(F)F)c2ccc(F)cc2)nn1
Response: 113

Request: // Input: CCc1cc2c(N3CCc4c(cc(Cn5ccnc5)cc4-c4cn(C)nc4C(F)(F)F)C3=O)cc(C)nc2c(OC)n1 + Cc1cccc(N(C)C(=O)C2C(O)CCN2c2nc(C)cc(C(F)(F)F)c2C#N)c1 . Output its viability, T/C only.
Response: 82.3

Request: Indicate its recorded viability, T/C; the compound in question is CC(C)n1c(=O)n(C)c2cnc3cc(F)c(-c4ccc(OCCCN5CCCCC5)nc4)cc3c21 + Nc1ccc(C#CCN(C(=O)Cc2ncc(C(F)(F)F)cc2C(F)(F)F)c2ccc(F)cc2)nn1
Response: 105

// provenance: PubChem BioAssay AID1963842
